Test: viability loss with induced miR-34 in A549 – imaging, A549 dox-inducible miR-34, nuclei and caspase counts, primary screen (AID 1347080); also: test concentration not given here
Settings: A549 miR-34 inducible, Hoechst nuclei count, 48 h; measured here: relative caspase fold change +Dox/-Dox
Rule: label 1 for fold change not less than 0.8, label 0 for anything less.

>  <Molecule>
Cc1nc2c([nH]1)CCN(C(=O)c1ccc(NC(=O)c3ccccc3-c3ccccc3)cc1)c1ccccc1-2

>  <Classification>
label 0

$$$$
>  <Molecule>
CNC(=O)[C@H](Cc1c[nH]c2ccccc12)NC(=O)[C@@H](CC(=O)NO)CC(C)C

>  <Classification>
label 1

$$$$
>  <Molecule>
CCCCCCCC/C=C\CCCCCCCC(=O)NCC(=O)O

>  <Classification>
label 0

$$$$
>  <Molecule>
CC(Nc1ncnc2nc[nH]c12)c1cc2cccc(Cl)c2c(=O)n1-c1ccccc1 (stereo unspecified)

>  <Classification>
label 1

$$$$
>  <Molecule>
COC(=O)c1c(-c2cc(OC)c(OC)c(OC)c2)c2ccnc(OCc3ncccn3)c2c(=O)n1Cc1ccnc(C)c1

>  <Classification>
label 1

$$$$
>  <Molecule>
COC(=O)C1=CC[C@@]23CC[C@@H]([C@@](C)(/C=C/C=C(\C)C(=O)O)OC2=O)[C@@]3(OC(C)=O)CC1

>  <Classification>
label 0

$$$$
>  <Molecule>
O=c1cc(N2CCNCC2)oc2c(-c3ccccc3)cccc12

>  <Classification>
label 1

$$$$
>  <Molecule>
CCOc1cc(N2CCC(O)CC2)ccc1Nc1ncc2c(n1)N(C)c1ccccc1C(=O)N2C

>  <Classification>
label 0

$$$$
>  <Molecule>
O=c1cc(N2CCOCC2)oc2c(-c3cccc4c3sc3ccccc34)cccc12

>  <Classification>
label 0

$$$$
>  <Molecule>
COc1cc(/C=C/C(=O)N2CCCCCC2)cc(OC)c1OC

>  <Classification>
label 1

$$$$
>  <Molecule>
CN(C)C(=O)c1cc2cnc(Nc3ccc(N4CCNCC4)cn3)nc2n1C1CCCC1

>  <Classification>
label 0

$$$$

Data credit: PubChem BioAssay
